- PROTOCOL: Microsomal stability assay, human liver microsomes;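 further: pooled human liver microsomes at 0.25 mg/mL with 1 µM compound and NADPH at 37 °C, pH 7.4, for 30 min, unchanged parent quantified by LC-MS/MS against the 0 min sample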
- MEASUREMENT_PARAMETERS: human liver microsomal data
I would appreciate it if you labelled entries Satisfied when HLM is 500 µL/min/mg or higher, otherwise Not satisfied.

> print(dat)
                                    molecule  qualitative.label
 1  COCC(=O)N[C@@H](Cc1cccc(C#N)c1)[C@H](O)CN[C@H]1CC2(CC(F)(F)C2)Oc2ncc(CC(C)(C)C)cc21          Satisfied
 2  COCC(=O)N[C@@H](Cc1cc(Br)cc(Br)c1)[C@H](O)CN[C@H]1CC2(CCC2)Oc2ncc(CC(C)(C)C)cc21      Not satisfied
 3  COCC(=O)N[C@@H](Cc1cc(F)cc(F)c1)[C@H](O)CN[C@H]1CC2(CCC2)Oc2c1cc(CC(C)(C)C)cc2-n1ccnc1      Not satisfied
 4  CO[C@H](C)C(=O)N[C@@H](Cc1ccc2c(c1)OCO2)[C@H](O)CN[C@H]1CC2(CCC2)Oc2ccc(C[C@@H](C)F)cc21      Not satisfied
 5  COCC(=O)N[C@@H](Cc1cccc(Br)c1)[C@H](O)CN[C@H]1CC2(CCC2)Oc2ncc(CC(C)C)cc21          Satisfied
 6  COCC(=O)N[C@@H](Cc1ccc(F)cc1)[C@H](O)CN[C@H]1CC2(CCC2)Oc2c1cc(CC(C)(C)C)nc2-c1nccs1      Not satisfied
 7  COCC(=O)N[C@@H](Cc1cc(F)cc(F)c1)[C@H](O)CN[C@H]1CC2(CCC2)Oc2c(Br)cc(CC(C)(C)C)cc21      Not satisfied
 8  CCOCC(=O)N[C@@H](Cc1ccc2c(c1)OCO2)[C@H](O)CN[C@H]1CC2(CCC2)Oc2ncc(CC(C)(C)C)cc21      Not satisfied
 9  CO[C@H](C)C(=O)N[C@@H](Cc1cc(Cl)ccc1F)[C@H](O)CN[C@H]1CC2(CCC2)Oc2ncc(CC(C)(C)C)cc21      Not satisfied
10  CC(=O)CC(=O)N[C@@H](Cc1cccc(F)c1)[C@H](O)CN[C@H]1CC2(CCC2)Oc2ncc(CC(C)(C)C)cc21      Not satisfied
11  CO[C@H](C)C(=O)N[C@@H](Cc1cccc(F)c1)[C@H](O)CN[C@H]1CC2(CCC2)Oc2c1cc(CC(C)(C)C)cc2-n1ccnc1      Not satisfied
12  CC(C)(C)Cc1cnc2c(c1)[C@@H](NC[C@@H](O)[C@H](Cc1ccc3c(c1)OCO3)NC(=O)C1CCO1)CC1(CCC1)O2 (some centres unmarked)      Not satisfied
13  CO[C@H](C)C(=O)N[C@@H](Cc1cccc(F)c1)[C@H](O)CN[C@H]1CC2(CCC2)Oc2c(Br)cc(CC(C)C)cc21          Satisfied
14  COCC(=O)N[C@@H](Cc1cc(F)cc(F)c1)[C@H](O)CN[C@H]1CC2(CCC2)Oc2c(-c3nccs3)cc(CC(C)C)cc21          Satisfied
